Each recorded value in this set is attributed to the COVID Moonshot data (paper PMC11187573).

Target: SARS-CoV-2 Main Protease (SARS-CoV-2)
Conditions: 50.0 µM
Measured endpoint: inhibition

Lookup: Any idea what its inhibition is? The molecule is O=C(Cc1cccc(Cl)c1)Nc1nnn[nH]1
Found: 49.1%

Lookup: Any idea what its inhibition is? The molecule is Nc1cc(C(F)(F)F)c(-c2nc(N3CCOCC3)nc(N3CCOCC3)n2)cn1
Found: 5.97%

Lookup: Any idea what its inhibition is? The molecule is O=C(NCc1coc2ccccc12)C1CCc2nnc(-c3ccc(O)cc3)n2C1 (stereo not given)
Found: 2.5%

Lookup: Any idea what its inhibition is? The molecule is O=C(CCl)N1CCN(Cc2cccc(Cl)c2)C[C@@H]1Cc1ccccc1 (stereo in doubt)
Found: 45.2%

Lookup: Any idea what its inhibition is? The molecule is COc1ccc(NC(=O)Nc2cn(C)c(=O)c3ccccc23)cc1OC
Found: 10.8%

Lookup: Any idea what its inhibition is? The molecule is Cc1ccc(NC2CCN(c3ccc(S(N)(=O)=O)cc3)CC2)cc1
Found: 5.62%

Lookup: Any idea what its inhibition is? The molecule is O=C(CCl)N1CCN(Cc2cnc(-c3ccccc3)nc2)CC1
Found: 15.7%

Lookup: Any idea what its inhibition is? The molecule is O=C(Nc1nncn1C1CC1)[C@@H]1CCOc2ccc(Cl)cc21 (stereo in doubt)
Found: 19.5%

Lookup: Any idea what its inhibition is? The molecule is C=CC(=O)N(c1ccc(C(C)(C)C)cc1)C(C(=O)NC(C)(C)C)c1cnccc1C (stereo not given)
Found: -12.5%

Lookup: Any idea what its inhibition is? The molecule is Cn1cncc1CNC(=O)Nc1cccc(OCC(F)F)n1
Found: 36.2%

---

Target: SARS-CoV-2 Main Protease (SARS-CoV-2)
Settings: 50.0 µM
Measured endpoint: inhibition
Write the numeric value and follow it with the unit.

Lookup: Any idea what its inhibition is? The molecule is C=CC(=O)N1CCN(S(C)(=O)=O)CC1c1ccccc1 (stereo not given)
Found: 0%

Lookup: Any idea what its inhibition is? The molecule is C[C@@H]1CS/C(=N\NC(=O)C(=O)C(NC(=O)C2CCCCCC2)C2CCOCC2)N1C (stereo in doubt)
Found: 21%

Lookup: Any idea what its inhibition is? The molecule is CCCN(CC1COc2ccccc2O1)C(=O)c1cc(=O)[nH]c2ccc(Cl)cc12 (stereo not given)
Found: 0%

Lookup: Any idea what its inhibition is? The molecule is C=CC(=O)N(c1ccc(C(C)(C)C)cc1)C(C(=O)NC(C)(C)C)c1cnccc1C (stereo not given)
Found: 0%

Lookup: Any idea what its inhibition is? The molecule is C=CC(=O)N(c1ccc(C(C)(C)C)cc1)C(C(=O)Nc1cccc(F)c1C)c1cccnc1 (stereo not given)
Found: 0%

Lookup: Any idea what its inhibition is? The molecule is NS(=O)(=O)c1ccc(N2CCC(CN3CCCCC3)CC2)cc1
Found: 22.7%

Lookup: Any idea what its inhibition is? The molecule is O=C(Nc1nc2ccc(F)cn2n1)C1CCOc2ccc(Cl)cc21 (stereo not given)
Found: 0%

Lookup: Any idea what its inhibition is? The molecule is Cc1ccc(NCc2cc(NC(=O)OC(C)(C)C)ccc2Br)cn1
Found: 35.9%

Lookup: Any idea what its inhibition is? The molecule is NS(=O)(=O)c1ccc(N2CCC([C@@H]3CCCO3)CC2)cc1 (stereo in doubt)
Found: 52.2%

Lookup: Any idea what its inhibition is? The molecule is Cc1cccc(NC(=O)Cn2cncc2C)n1
Found: 0%
